- Read-out: CD40, CD40 (gene 958)
- EXPERIMENT SUMMARY: BSK_LPS_CD40: BioMAP Diversity Plus: LPS Assay for CD40 Biomarker Activity (AID 2283076)
- APPLIED CONDITIONS: primary human HUVEC with PBMC; actives raise or lower the signal
- Experimental: BSK_LPS is a cell-based, multiplexed-readout assay that uses umbilical vein endothelium and peripheral blood mononuclear cells, a human vascular primary cell co-culture, with measurements taken at 24 hours after chemical dosing in a 96-well plate.BSK_LPS_CD40 is an assay component measured in the BSK_LPS assay. It measures CD40 antibody related to regulation of gene expression using ELISA technology.Data from the assay component BSK_LPS_CD40 was analyzed into 1 assay endpoint. […]
Calls of active or inactive are those of the source. The calls were made as follows: active = hit-call score of the fitted dose curve at least 0.9, where 1 is the maximum; inactive = score below 0.9.
Respond only with the outcome that fits, drawn from active, inactive

Worked cases, answers included:
COMPOUND: CCSC(=O)N(CC(C)C)CC(C)C
GROUP LABEL: inactive

COMPOUND: CCCCC(CC)CN1C(=O)C2C3C=CC(C3)C2C1=O (stereo not drawn)
GROUP LABEL: active

COMPOUND: CCCOC(=O)c1ccc(C(=O)OCCC)nc1
GROUP LABEL: inactive

COMPOUND: CC(C)(C)[C@@H](O)[C@@H](Cc1ccc(Cl)cc1)n1cncn1
GROUP LABEL: inactive

COMPOUND: OB(O)O
GROUP LABEL: inactive

Per the assay record, what outcome was assigned to CCCN(CCC)C(=O)SCC ?
inactive

Per the assay record, what outcome was assigned to CCOC(=O)c1ccc(O)cc1 ?
inactive

Per the assay record, what outcome was assigned to CC(C)CCCCCCc1ccc(O)cc1 ?
active

Per the assay record, what outcome was assigned to COC(=O)CSc1cc(N=c2sc(=O)n3n2CCCC3)c(F)cc1Cl ?
inactive

Per the assay record, what outcome was assigned to CCCN(CCC)c1c([N+](=O)[O-])cc(C(F)(F)F)c(N)c1[N+](=O)[O-] ?
inactive

Per the assay record, what outcome was assigned to CCCCCCC(C)OC(=O)COc1nc(F)c(Cl)c(N)c1Cl (stereo not drawn) ?
active

Per the assay record, what outcome was assigned to N[C@@H](Cc1cc(I)c(Oc2ccc(O)c(I)c2)c(I)c1)C(=O)O ?
inactive

Per the assay record, what outcome was assigned to C#C[C@]1(O)CC[C@H]2[C@@H]3CCC4=CC(=O)CC[C@@H]4[C@H]3CC[C@@]21CC ?
inactive

====

- EXPERIMENT SUMMARY: APR_HepG2_MitoMass_72hr: Apredica 72-hour HepG2 Assay for Mitochondrial Mass (AID 2282924);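 also: MitoTracker Red CMXRos stain intensity per cell imaged as mitochondrial mass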
- APPLIED CONDITIONS: high-content imaging, actives raise or lower the signal
The source made the active and inactive calls. Rule for the calls: active = hit-call score of the fitted dose curve at least 0.9, where 1 is the maximum; inactive = score below 0.9.

SAMPLE SMILES: COC(=O)c1cccc(C)c1S(=O)(=O)NC(=O)Nc1nc(OCC(F)(F)F)nc(N(C)C)n1
AC50: inactive

SAMPLE SMILES: C#CCOC(=O)[C@@H](C)Oc1ccc(Oc2ncc(Cl)cc2F)cc1
AC50: inactive

SAMPLE SMILES: CC(=O)S[C@@H]1CC2=CC(=O)CC[C@]2(C)[C@H]2CC[C@@]3(C)[C@@H](CC[C@@]34CCC(=O)O4)[C@H]12
AC50: 96.8 µM (active)

SAMPLE SMILES: N#CSCSc1nc2ccccc2s1
AC50: inactive
